Target Entity: Estrogen receptor (Homo sapiens)
Test Description: CCTE_Deisenroth_AIME_384WELL_LUC_Shift: CCTE's 384-well Estrogen Receptor Transactivation Assay with AIME metabolic competence data shift (ERTA luciferase; difference in metabolism positive and negative), Deisenroth Lab (AID 2284041);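 also: shift is response with S9 minus without S9 so positive means metabolism raised ER signal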
Method: CCTE_Deisenroth_AIME_384WELL (AIME metabolism assay) is a cell-based, single-readout assay that uses VM7Luc4E2, a human mammary gland/breast cell line, with measurements taken at 24 hour after chemical dosing in a 384-well plate.CCTE_Deisenroth_AIME_384WELL_LUC_Shift is one of two analysis components calculated from the CCTE_Deisenroth_AIME_384WELL assay. […] Standard curve fit analysis identfiied chemicals where the calculated shift was greater than the shift-derived baseline cutoff. […]
Activity calls are given as the source filed them. The calls were made as follows: active = hit-call score of the fitted dose curve at least 0.9, where 1 is the maximum; inactive = score below 0.9.
Measured Endpoint: AC50

For orientation, consider the following solved cases.
[
  {
    "Compound": "[O-][Cl+]O",
    "Result": "inactive"
  },
  {
    "Compound": "Cc1ccc([N+](=O)[O-])cc1",
    "Result": "inactive"
  },
  {
    "Compound": "C[N+](C)(C)CC1CO1 (centres undefined)",
    "Result": "inactive"
  },
  {
    "Compound": "CCCCCOC(=O)c1ccccc1C(=O)OCCCCC",
    "Result": "inactive"
  },
  {
    "Compound": "O=C(Nc1ccccc1)c1ccccc1I",
    "Result": "6.87 µM (active)"
  },
  {
    "Compound": "CCOc1cccc(C2(N3CCN(c4ccccc4)CC3)CCC(C)CC2)c1 (centres undefined)",
    "Result": "inactive"
  },
  {
    "Compound": "O=C(Oc1ccc(Br)cc1)N1CCN2CCC1CC2",
    "Result": "inactive"
  },
  {
    "Compound": "CNC(=O)Oc1cccc2c1OC(C)(C)C2",
    "Result": "45.4 µM (active)"
  }
]

stdin: Requested field: AC50. Item: "OCCCBr"
stdout: inactive
